# MEASURED_TARGET: recombinant human MASP2 active protease (amino acids 297-686, C-terminal His Tag) (human, UniProt O00187 297-686)
# Sequence (O00187 other isoform, or with tags, fused parts or gaps limits assumed): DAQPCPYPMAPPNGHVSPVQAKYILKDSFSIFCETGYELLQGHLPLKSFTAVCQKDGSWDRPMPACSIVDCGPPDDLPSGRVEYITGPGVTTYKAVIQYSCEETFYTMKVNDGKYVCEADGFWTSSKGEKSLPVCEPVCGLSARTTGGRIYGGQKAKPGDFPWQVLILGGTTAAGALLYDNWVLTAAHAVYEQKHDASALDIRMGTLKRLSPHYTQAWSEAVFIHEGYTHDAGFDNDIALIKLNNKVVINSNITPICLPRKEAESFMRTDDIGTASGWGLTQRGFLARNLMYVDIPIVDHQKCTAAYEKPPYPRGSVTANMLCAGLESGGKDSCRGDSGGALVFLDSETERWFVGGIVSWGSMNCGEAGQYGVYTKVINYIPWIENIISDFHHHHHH
# PROTOCOL_SUMMARY: cell-based or functional assay
Bridge positions count the residues as written; N and C are the ends. Square brackets hold non-standard residues; d marks the D form. Ends that are not written are not given here. Oic = O=C(O)[C@@H]1C[C@@H]2CCCC[C@@H]2N1; tBuAla = CC(C)(C)C[C@H](N)C(=O)O; Pen = CC(C)(S)[C@H](N)C(=O)O; NMeC = CN[C@@H](CS)C(=O)O; NMeA = CN[C@@H](C)C(=O)O; Sar = CNCC(=O)O
MEASURE_NAME: human MASP2 IC50
Kindly write the number and append the unit.

Solved entries (count: 4):
binder="[dA]ICSRSLP[Oic]I[Pen]I-OH (disulfide 3-11; N-terminus assumed; SMILES CC[C@H](C)[C@H](NC(=O)[C@H]1NC(=O)[C@H]([C@@H](C)CC)NC(=O)[C@@H]2C[C@@H]3CCCC[C@@H]3N2C(=O)[C@@H]2CCCN2C(=O)[C@H](CC(C)C)NC(=O)[C@H](CO)NC(=O)[C@H](CCCNC(=N)N)NC(=O)[C@H](CO)NC(=O)[C@@H](NC(=O)[C@@H](NC(=O)[C@@H](C)N)[C@@H](C)CC)CSSC1(C)C)C(=O)O) [aIC+SRSLP-(Oic)-I-(Pen)+I-OH]" value="92 nM"
binder="AICSRS[tBuAla]PPI[NMeC]IPD-NH2 (disulfide 3-11; N-terminus assumed; SMILES CC[C@H](C)[C@H](NC(=O)[C@H](C)N)C(=O)N[C@H]1CSSC[C@@H](C(=O)N[C@H](C(=O)N2CCC[C@H]2C(=O)N[C@@H](CC(=O)O)C(N)=O)[C@@H](C)CC)N(C)C(=O)[C@H]([C@@H](C)CC)NC(=O)[C@@H]2CCCN2C(=O)[C@@H]2CCCN2C(=O)[C@H](CC(C)(C)C)NC(=O)[C@H](CO)NC(=O)[C@H](CCCNC(=N)N)NC(=O)[C@H](CO)NC1=O) [AIC+SRS-((tBu)A)-PPI-((N-Me)C)+IPD-NH2]" value="225 nM"
binder="[NMeA]ICSRSLP[Oic]I[Pen]IPD-NH2 (disulfide 3-11; N-terminus assumed; SMILES CC[C@H](C)[C@H](NC(=O)[C@H](C)NC)C(=O)N[C@H]1CSSC(C)(C)[C@@H](C(=O)N[C@H](C(=O)N2CCC[C@H]2C(=O)N[C@@H](CC(=O)O)C(N)=O)[C@@H](C)CC)NC(=O)[C@H]([C@@H](C)CC)NC(=O)[C@@H]2C[C@@H]3CCCC[C@@H]3N2C(=O)[C@@H]2CCCN2C(=O)[C@H](CC(C)C)NC(=O)[C@H](CO)NC(=O)[C@H](CCCNC(=N)N)NC(=O)[C@H](CO)NC1=O) [((N-Me)A)-IC+SRSLP-(Oic)-I-(Pen)+IPD-NH2]" value="145 nM"
binder="AICSRS[tBuAla]PPICI-NH2 (disulfide 3-11; N-terminus assumed; SMILES CC[C@H](C)[C@H](NC(=O)[C@@H]1CSSC[C@H](NC(=O)[C@@H](NC(=O)[C@H](C)N)[C@@H](C)CC)C(=O)N[C@@H](CO)C(=O)N[C@@H](CCCNC(=N)N)C(=O)N[C@@H](CO)C(=O)N[C@@H](CC(C)(C)C)C(=O)N2CCC[C@H]2C(=O)N2CCC[C@H]2C(=O)N[C@@H]([C@@H](C)CC)C(=O)N1)C(N)=O) [AIC+SRS-((tBu)A)-PPIC+I-NH2]" value="120 nM"

Query block: Quick one: human MASP2 IC50 of [Sar]ICSRSLP[Oic]I[Pen]IP-NH2 (disulfide 3-11; also: HCl salt) [((N-Me)G)-IC+SRSLP-(Oic)-I-(Pen)+IP-NH2 (HCl salt)] ?
Result block: 43 nM
